Quick reference for Value: binding to P100 as a ratio of GST-HAX42 binding among some substances
test system: P100 membrane fraction derived from Caco-2 cells; assay: GST-PAX2 peptides relative binding to P100 fractions; conditions: 20 μg/ml; binding to plastic subtracted; GST-HAX42 = 1.00
endpoint label: Value: binding to P100 as a ratio of GST-HAX42 binding

> print(dat)
                                  substance  recorded.value
1  gst-STPPSREAYSRPYSVDSDSDTNAKHSSHNRRLRTRSRPN [GST-PAX2]            1.79
2                  gst-RRLRTRSRPN [GST-115]            0.36
3                   gst-TNAKHSSHN [GST-113]            0.26
4  gst-SDHALGTNLRSDNAKEPGDYNCCGNGNSTGRXVFNRRRPSAIPT [GST-HAX42]            1.00
5       gst-SRPYSVDSDSDTNAKHSSHNR [GST-105]           −0.08
6         gst-TNAKHSSHNRRLRTRSRPN [GST-106]            2.71
7                  gst-SSHNRRLRTR [GST-114]            0.17
8        gst-STPPSREAYSRPYSVDSDSD [GST-104]            0.01

----------
Measured Binding value at 50 μg/ml, listed per entry for reference.
tested on: P100 membrane fractions derived from Caco-2 cells; assay: Dansylated peptide ELISA on P100: PAX2 and HAX42 peptides relative binding; details: PAX2 peptides, ratio to ZElan021 (HAX42 = 1.00), first 50 μg/ml column
Peptide text beside a SMILES is read from it. * marks the point of attachment. Dansyl = CN(C)c1cccc2c(S(=O)(=O)*)cccc12

molecule	target under test	Binding value at 50 μg/ml
C[C@H](NC(=O)[C@H](CCCNC(=N)N)NC(=O)[C@H](CCCNC(=N)N)NC(=O)[C@H](CC(N)=O)NC(=O)[C@H](Cc1c[nH]cn1)NC(=O)[C@H](CO)NC(=O)[C@H](CO)NC(=O)[C@@H](N)CCCCNS(=O)(=O)c1cccc2c(N(C)C)cccc12)C(=O)N[C@@H](CCCNC(=N)N)C(=O)N[C@H](C(=O)N[C@@H](CCCNC(=N)N)C(N)=O)[C@@H](C)O [ZElan079] (H-K(Dansyl)SSHNRRARTR-NH2)	P100 membrane fractions derived from Caco-2 cells	0.97
CC(C)C[C@H](NC(=O)[C@H](CCCNC(=N)N)NC(=O)[C@H](C)NC(=O)[C@H](CC(N)=O)NC(=O)[C@H](Cc1c[nH]cn1)NC(=O)[C@H](CO)NC(=O)[C@H](CO)NC(=O)[C@@H](N)CCCCNS(=O)(=O)c1cccc2c(N(C)C)cccc12)C(=O)N[C@@H](CCCNC(=N)N)C(=O)N[C@H](C(=O)N[C@@H](CCCNC(=N)N)C(N)=O)[C@@H](C)O [ZElan077] (H-K(Dansyl)SSHNARLRTR-NH2)	P100 membrane fractions derived from Caco-2 cells	0.76

----------
Reported Binding value at 50 μg/ml by item:
test system: P100 membrane fractions derived from Caco-2 cells; assay: Dansylated peptide ELISA on P100: PAX2 and HAX42 peptides relative binding; conditions: PAX2 peptides, ratio to ZElan021 (HAX42 = 1.00), first 50 μg/ml column
Peptide text beside a SMILES is read from it. * marks the point of attachment. Dansyl = CN(C)c1cccc2c(S(=O)(=O)*)cccc12

compound	Binding value at 50 μg/ml
CC(C)C[C@H](NC(=O)[C@H](CCCNC(=N)N)NC(=O)[C@H](CCCNC(=N)N)NC(=O)[C@@H](N)CCCCNS(=O)(=O)c1cccc2c(N(C)C)cccc12)C(=O)N[C@@H](CCCNC(=N)N)C(=O)N[C@H](C(=O)N[C@@H](CCCNC(=N)N)C(=O)N[C@@H](CO)C(=O)N[C@@H](CCCNC(=N)N)C(N)=O)[C@@H](C)O [ZElan057] (H-K(Dansyl)RRLRTRSR-NH2)	0.56
CC(C)C[C@H](NC(=O)[C@H](CCCNC(=N)N)NC(=O)[C@H](CCCNC(=N)N)NC(=O)[C@H](CC(N)=O)NC(=O)[C@H](Cc1c[nH]cn1)NC(=O)[C@H](CO)NC(=O)[C@H](CO)NC(=O)[C@@H](N)CCCCNS(=O)(=O)c1cccc2c(N(C)C)cccc12)C(=O)N[C@@H](CCCNC(=N)N)C(=O)N[C@H](C(=O)N[C@@H](C)C(N)=O)[C@@H](C)O [ZElan082] (H-K(Dansyl)SSHNRRLRTA-NH2)	0.92
CC(C)C[C@H](NC(=O)[C@H](CCCNC(=N)N)NC(=O)[C@H](CCCNC(=N)N)NC(=O)[C@H](CC(N)=O)NC(=O)[C@H](Cc1c[nH]cn1)NC(=O)[C@H](C)NC(=O)[C@H](CO)NC(=O)[C@@H](N)CCCCNS(=O)(=O)c1cccc2c(N(C)C)cccc12)C(=O)N[C@@H](CCCNC(=N)N)C(=O)N[C@H](C(=O)N[C@@H](CCCNC(=N)N)C(N)=O)[C@@H](C)O [ZElan074] (H-K(Dansyl)SAHNRRLRTR-NH2)	0.82
C[C@H](NC(=O)[C@H](CC(N)=O)NC(=O)[C@@H](NC(=O)[C@@H](N)CCCCNS(=O)(=O)c1cccc2c(N(C)C)cccc12)[C@@H](C)O)C(=O)N[C@@H](CCCCN)C(=O)N[C@@H](Cc1c[nH]cn1)C(=O)N[C@@H](CO)C(=O)N[C@@H](CO)C(=O)N[C@@H](Cc1c[nH]cn1)C(=O)N[C@@H](CC(N)=O)C(N)=O [ZElan055] (H-K(Dansyl)TNAKHSSHN-NH2)	1.10
CC(C)C[C@H](NC(=O)[C@H](CCCNC(=N)N)NC(=O)[C@H](CCCNC(=N)N)NC(=O)[C@H](CC(N)=O)NC(=O)[C@H](Cc1c[nH]cn1)NC(=O)[C@H](CO)NC(=O)[C@H](CO)NC(=O)[C@@H](N)CCCCNS(=O)(=O)c1cccc2c(N(C)C)cccc12)C(=O)N[C@@H](CCCNC(=N)N)C(=O)N[C@@H](C)C(=O)N[C@@H](CCCNC(=N)N)C(N)=O [ZElan081] (H-K(Dansyl)SSHNRRLRAR-NH2)	0.89
CC(C)C[C@H](NC(=O)[C@H](CCCNC(=N)N)NC(=O)[C@H](CCCNC(=N)N)NC(=O)[C@H](CC(N)=O)NC(=O)[C@H](Cc1c[nH]cn1)NC(=O)[C@H](CO)NC(=O)[C@H](CO)NC(=O)[C@@H](N)CCCCNS(=O)(=O)c1cccc2c(N(C)C)cccc12)C(=O)N[C@@H](C)C(=O)N[C@H](C(=O)N[C@@H](CCCNC(=N)N)C(N)=O)[C@@H](C)O [ZElan080] (H-K(Dansyl)SSHNRRLATR-NH2)	0.84
CC(C)C[C@H](NC(=O)[C@H](CCCNC(=N)N)NC(=O)[C@H](CCCNC(=N)N)NC(=O)[C@@H](N)CCCCNS(=O)(=O)c1cccc2c(N(C)C)cccc12)C(=O)N[C@@H](CCCNC(=N)N)C(=O)N[C@H](C(=O)N[C@@H](CCCNC(=N)N)C(=O)N[C@@H](CO)C(=O)N[C@@H](CCCNC(=N)N)C(=O)N1CCC[C@H]1C(=O)N[C@@H](CC(N)=O)C(N)=O)[C@@H](C)O [ZElan056] (H-K(Dansyl)RRLRTRSRPN-NH2)	0.21
CC(C)C[C@H](NC(=O)[C@H](CCCNC(=N)N)NC(=O)[C@H](CCCNC(=N)N)NC(=O)[C@H](CC(N)=O)NC(=O)[C@H](C)NC(=O)[C@H](CO)NC(=O)[C@H](CO)NC(=O)[C@@H](N)CCCCNS(=O)(=O)c1cccc2c(N(C)C)cccc12)C(=O)N[C@@H](CCCNC(=N)N)C(=O)N[C@H](C(=O)N[C@@H](CCCNC(=N)N)C(N)=O)[C@@H](C)O [ZElan075] (H-K(Dansyl)SSANRRLRTR-NH2)	0.52
CC(C)C[C@H](NC(=O)[C@H](CCCNC(=N)N)NC(=O)[C@H](CCCNC(=N)N)NC(=O)[C@@H](N)CCCCNS(=O)(=O)c1cccc2c(N(C)C)cccc12)C(=O)N[C@@H](CCCNC(=N)N)C(=O)N[C@H](C(=O)N[C@@H](CCCNC(=N)N)C(N)=O)[C@@H](C)O [ZElan058, H2N-K(dns)RRLRTR-CONH2] (H-K(Dansyl)RRLRTR-NH2)	0.47
CC(C)C[C@H](NC(=O)[C@H](C)NC(=O)[C@H](CCCNC(=N)N)NC(=O)[C@H](CC(N)=O)NC(=O)[C@H](Cc1c[nH]cn1)NC(=O)[C@H](CO)NC(=O)[C@H](CO)NC(=O)[C@@H](N)CCCCNS(=O)(=O)c1cccc2c(N(C)C)cccc12)C(=O)N[C@@H](CCCNC(=N)N)C(=O)N[C@H](C(=O)N[C@@H](CCCNC(=N)N)C(N)=O)[C@@H](C)O [ZElan078] (H-K(Dansyl)SSHNRALRTR-NH2)	0.87

Ref: patent US7135457B1
